Provide the reported MIC of each item.
# Tested on: S. aureus (CCUG1800T)
# ASSAY NAME: MIC, microdilution, S. aureus CCUG1800T
# Format: cell-based, Staphylococcus aureus
# MEASUREMENT SETUP: Staphylococcus aureus; read-out: MIC S. aureus (CCUG1800T)
Numbers only, in µM.

{"COMPOUND": "CCn1cc(C(=O)O)c(=O)c2cc(F)c(N3CCNCC3)cc21 [Nor, norfloxacin, reference compound]", "MIC, µM": 3.13}
{"COMPOUND": "CCn1cc(C(=O)O)c(=O)c2cc(F)c(N3CCN(C(=O)CN4CCOCC4)CC3)cc21 [7b]", "MIC, µM": 4.47}
{"COMPOUND": "CCn1cc(C(=O)O)c(=O)c2cc(F)c(N3CCN(CNc4ccc([N+](=O)[O-])cc4)CC3)cc21 [compound 21]", "MIC, µM": 2.13}
{"COMPOUND": "CCn1cc(C(=O)O)c(=O)c2cc(F)c(N3CCN(C(=O)CN4CCCCC4)CC3)cc21 [7a]", "MIC, µM": 8.99}
{"COMPOUND": "CCn1cc(C(=O)O)c(=O)c2cc(F)c(N3CCN(C(=O)CNc4ccc(Br)cc4)CC3)cc21 [4b]", "MIC, µM": 1.88}

Now turn to the next compound.
Query string: So what does the record say about MIC for O=C(O)c1cn(C2CC2)c2cc(N3CCNCC3)c(F)cc2c1=O [Cip, ciprofloxacin, reference compound] ?
Result string: 3.01
